experiment: Steady state fluorescence spectra and quantum yield; assay type: physicochemical; conditions: in complex with biliverdin, red excitation
measured parameter: Ex/Em1, emission (nm)

INSERT INTO assay_data (molecule, measured_parameter, units_label, numeric_readout) VALUES
  ('SFP-L135E: monomeric SFP variant L135E, SEQ ID NO:3 (protein) FIKPGRCPKPAVQEDFDAARYLGVWYDIQRLPNKFQKGECATATYSLSPGVGFSVFNRERLANGTIKSVIGSAIAEDPCEPAKLQFFHENAAPVPYWVLSTDYDNYALVYSCINEGASHAAYASIVSRQPTLPEETIKKLQGTMSSFGVGVDTLLTTNQDAAYCSAMNQ', 'Ex/Em1, emission', 'nm', 676),
  ('Wild-type SFP: Sandercyanin fluorescent protein from walleye Sander vitreus mucus, biliverdin-binding lipocalin tetramer; SEQ ID NO:1 (recombinant SEQ ID NO:31) (protein, listed as Sander vitreus, biliverdin chromophore) MNAIQVISLTLLSVLAAKAMFIKPGRCPKPAVQEDFDAARYLGVWYDIQRLPNKFQKGECATATYSLSPGVGFSVFNRERLANGTIKSVIGSAIAEDPCEPAKLQFFHENAAPVPYWVLSTDYDNYALVYSCINLGASHAAYASIVSRQPTLPEETIKKLQGTMSSFGVGVDTLLTTNQDAAYCSAMAQ', 'Ex/Em1, emission', 'nm', 675),
  ('SFP-A137E: monomeric SFP variant A137E, SEQ ID NO:4 (protein) FIKPGRCPKPAVQEDFDAARYLGVWYDIQRLPNKFQKGECATATYSLSPGVGFSVFNRERLANGTIKSVIGSAIAEDPCEPAKLQFFHENAAPVPYWVLSTDYDNYALVYSCINLGESHAAYASIVSRQPTLPEETIKKLQGTMSSFGVGVDTLLTTNQDAAYCSAMNQ', 'Ex/Em1, emission', 'nm', 653);

These measurements were taken from patent US10962528B2.
